- STUDY SYSTEM: receptor interacting protein kinase 1 (GST-hRIPK1 (8-327)) (Homo sapiens, UniProt Q13546)
- Construct: GST-hRIPK1 (8-327) enzyme was generated by Proteros GmbH by Baculovirus expression system
- Sequence (Q13546 8-327): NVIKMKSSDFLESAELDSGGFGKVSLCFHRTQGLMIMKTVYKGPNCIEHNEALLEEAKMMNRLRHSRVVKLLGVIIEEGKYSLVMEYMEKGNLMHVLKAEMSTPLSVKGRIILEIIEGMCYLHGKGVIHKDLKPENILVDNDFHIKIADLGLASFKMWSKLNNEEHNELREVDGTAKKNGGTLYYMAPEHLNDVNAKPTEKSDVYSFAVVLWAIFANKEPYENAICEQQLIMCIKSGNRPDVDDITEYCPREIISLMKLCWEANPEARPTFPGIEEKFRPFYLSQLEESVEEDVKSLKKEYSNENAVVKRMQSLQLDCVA
- METHOD DESCRIPTION: ADP-Glo luminescence assay, RIPK1 autophosphorylation
- Assay type: biochemical
- STATED CONDITIONS: 1.5 μg/mL GST-hRIPK1 (8-327), 50 μM ATP, 3 hours at room temperature
- Experimental: Compound potency at receptor interacting protein kinase 1 and selectivity at receptor interacting protein kinase 2 and receptor interacting protein kinase 3 was determined in autophosphorylation mode, using an ADP-Glo luminescence assay, which measures the conversion of ATP to ADP. GST-hRIPK1 (8-327) enzyme was generated by Proteros GmbH by Baculovirus expression system. […] The luminescence is then measured with the Envision (PerkinElmer) plate reader. […]
pIC50: −log10 of the molar value.
Please respond with reported pIC50 for every item in the list.

Data point: CC(C)(C)C(=O)N1OCC[C@H]1c1cccc(F)c1 (stereo in doubt) [Compound 23] ; pIC50 = > 6.00

Data point: CC(C)(C)C(=O)N1OCC[C@H]1c1cncc(C#N)c1 [Compound 108] ; pIC50 = > 6.00

Data point: CC1(C(=O)N2OCC[C@H]2c2ccccc2)CCOCC1 [Compound 69] ; pIC50 = > 6.00

Data point: CC(C)(C)OC(=O)N1OCCC1c1ccccc1 (centres unmarked) [Compound 83] ; pIC50 = 5.00 to 6.00

Data point: CC(C)(C)C(=O)N1OCCC1c1cccnc1F (centres unmarked) [Compound 81] ; pIC50 = > 6.00

###

- STUDY SYSTEM: receptor interacting protein kinase 1 (GST-hRIPK1 (8-327)) (Homo sapiens, UniProt Q13546)
- Construct: GST-hRIPK1 (8-327) enzyme was generated by Proteros GmbH by Baculovirus expression system
- METHOD DESCRIPTION: Fluorescent Polarization Binding (FP Binding) assay
- STATED CONDITIONS: 10 nM GST-hRIPK1 (8-327), 5 nM fluorescent-labeled ligand, 30 min at RT
- Procedure: […] After addition of 5 μL of fluorescent-labeled ligand at twice the final concentrations in assay buffer, the plate was incubated at RT for 30 min. At the end, the binding was measured as FP value with the Envision (PerkinElmer) plate reader using filter for an excitation λ=531 nm FP and an emission λ=595 nm FP (S & P-pol). Test compound inhibition was expressed as percent inhibition of internal assay controls. […]
Please respond with reported IC50 for every item in the list.

Measured IC50 (receptor interacting protein kinase 1 (GST-hRIPK1 (8-327)) (Homo sapiens, UniProt Q13546)), entry CC(C)(C)C(=O)N1OCC[C@@H]1c1cc(F)cc(F)c1 (single isomer, unassigned) [Compound 102] : < 1000 nM

Measured IC50 (receptor interacting protein kinase 1 (GST-hRIPK1 (8-327)) (Homo sapiens, UniProt Q13546)), entry CC(C)(C(=O)N1OCC[C@H]1c1ccc(-c2ncon2)cc1)C(F)F [Compound 207] : < 1000 nM

Measured IC50 (receptor interacting protein kinase 1 (GST-hRIPK1 (8-327)) (Homo sapiens, UniProt Q13546)), entry Cn1cc([C@@H]2CCON2C(=O)C(C)(C)C)cn1 (single isomer, unassigned) [Compound 106] : < 1000 nM

Measured IC50 (receptor interacting protein kinase 1 (GST-hRIPK1 (8-327)) (Homo sapiens, UniProt Q13546)), entry CC(C)(C)C(=O)N1OCC[C@H]1c1ccc(C2CC2)nc1 [Compound 148] : < 1000 nM

Measured IC50 (receptor interacting protein kinase 1 (GST-hRIPK1 (8-327)) (Homo sapiens, UniProt Q13546)), entry O=C(C1CC1(F)F)N1OCC[C@H]1c1ccc(F)cc1 (single isomer, unassigned) [Compound 236] : < 1000 nM

Measured IC50 (receptor interacting protein kinase 1 (GST-hRIPK1 (8-327)) (Homo sapiens, UniProt Q13546)), entry CC(C(=O)N1OCC[C@H]1c1ccc(F)cc1)C(F)(F)F (single isomer, unassigned) [Compound 95] : < 1000 nM

Measured IC50 (receptor interacting protein kinase 1 (GST-hRIPK1 (8-327)) (Homo sapiens, UniProt Q13546)), entry CC(C)(C)C(=O)N1OCC[C@H]1c1ccc(C(F)(F)F)cn1 [Compound 122] : < 1000 nM

Measured IC50 (receptor interacting protein kinase 1 (GST-hRIPK1 (8-327)) (Homo sapiens, UniProt Q13546)), entry CC(C)(C)C(=O)N1OCC[C@H]1c1ccc(C(F)(F)F)nc1 [Compound 120] : < 1000 nM

Measured IC50 (receptor interacting protein kinase 1 (GST-hRIPK1 (8-327)) (Homo sapiens, UniProt Q13546)), entry CC(C)(C)C(=O)N1OCC[C@H]1c1ccc(F)c(F)c1 [Compound 50] : < 1000 nM

Measured IC50 (receptor interacting protein kinase 1 (GST-hRIPK1 (8-327)) (Homo sapiens, UniProt Q13546)), entry CC(C)(C)C(=O)N1OCC[C@H]1c1nc(C(F)(F)F)cs1 [Compound 123] : 1000 to 10000 nM

Measured IC50 (receptor interacting protein kinase 1 (GST-hRIPK1 (8-327)) (Homo sapiens, UniProt Q13546)), entry CC(C)(C)C(=O)N1OCC[C@H]1c1c(F)cccc1F [Compound 68] : < 1000 nM

Measured IC50 (receptor interacting protein kinase 1 (GST-hRIPK1 (8-327)) (Homo sapiens, UniProt Q13546)), entry O=C(C1C2COCC21)N1OCC[C@H]1c1ccc(F)nc1 (some centres unmarked) [Compound 160] : 1000 to 10000 nM

Measured IC50 (receptor interacting protein kinase 1 (GST-hRIPK1 (8-327)) (Homo sapiens, UniProt Q13546)), entry CC(C)(C)C(=O)N1OCC[C@@H]1c1cccc(F)c1 [Compound 82] : 1000 to 10000 nM

Measured IC50 (receptor interacting protein kinase 1 (GST-hRIPK1 (8-327)) (Homo sapiens, UniProt Q13546)), entry CC(C)(C)C(=O)N1OCC[C@H]1c1cn2ccccc2n1 [Compound 111] : 1000 to 10000 nM

Measured IC50 (receptor interacting protein kinase 1 (GST-hRIPK1 (8-327)) (Homo sapiens, UniProt Q13546)), entry CC(C(=O)N1OCC[C@H]1c1ccc(C#N)cc1)C(F)(F)F (single isomer, unassigned) [Compound 180] : < 1000 nM

Measured IC50 (receptor interacting protein kinase 1 (GST-hRIPK1 (8-327)) (Homo sapiens, UniProt Q13546)), entry C[C@@H]1C[C@@H](c2ccc(C#N)cc2)N(C(=O)C(C)(C)C)O1 (single isomer, unassigned) [Compound 100] : < 1000 nM

Measured IC50 (receptor interacting protein kinase 1 (GST-hRIPK1 (8-327)) (Homo sapiens, UniProt Q13546)), entry CC(C)(CC#N)C(=O)N1OCC[C@H]1c1ccc(C(F)F)c(C#N)c1 [Compound 228] : < 1000 nM

###

Please respond with reported pIC50 for every item in the list.
- STUDY SYSTEM: receptor interacting protein kinase 1 (GST-hRIPK1 (8-327)) (Homo sapiens)
- Construct: GST-hRIPK1 (8-327) enzyme was generated by Proteros GmbH by Baculovirus expression system
- METHOD DESCRIPTION: Fluorescent Polarization Binding (FP Binding) assay
- STATED CONDITIONS: 10 nM GST-hRIPK1 (8-327), 5 nM fluorescent-labeled ligand, 30 min at RT
pIC50: −log10 of the molar value.

Data point: CC1(C(=O)N2OCC[C@H]2c2ccc(F)cc2)COC1 [Compound 33] ; pIC50 = > 6.00

Data point: CC(C)(C)C(=O)N1OCCC1c1ccnnc1 (centres unmarked) [Compound 157] ; pIC50 = 5.00 to 6.00

Data point: CC(C(=O)N1OCC[C@H]1c1ccc(F)nc1)C(F)(F)F (single isomer, unassigned) [Compound 162] ; pIC50 = > 6.00

Data point: O=C(C1CC1)N1OCC[C@H]1c1ccccc1 [Compound 12] ; pIC50 = > 6.00

Data point: O=C([C@H]1C[C@H](O)C1)N1OCC[C@H]1c1ccccc1 [Compound 75] ; pIC50 = 5.00 to 6.00

Data point: CC(CC(F)(F)F)C(=O)N1OCC[C@H]1c1ccc(C#N)cc1 (single isomer, unassigned) [Compound 230] ; pIC50 = > 6.00

Data point: Cc1cnc([C@@H]2CCON2C(=O)C(C)(C)C)cn1 [Compound 138] ; pIC50 = > 6.00

Data point: CC(C)(C)C(=O)N1OCC[C@H]1c1ccccc1C#N [Compound 146] ; pIC50 = > 6.00

Data point: CC1(C(=O)N2OCC[C@H]2c2ccccc2)CC(F)(F)C1 [Compound 57] ; pIC50 = > 6.00

Data point: CC1(C(=O)N2OCC[C@H]2c2ccc(F)c(F)c2)CCOC1 (single isomer, unassigned) [Compound 211] ; pIC50 = > 6.00

Data point: CC(C)(C(=O)N1OCC[C@H]1c1ccc(C(F)F)c(C#N)c1)C(F)F [Compound 227] ; pIC50 = > 6.00

Data point: Cc1noc(C)c1C(C)C(=O)N1OCC[C@H]1c1ccc(F)cc1 (single isomer, unassigned) [Compound 186] ; pIC50 = 5.00 to 6.00

Data point: CC(C)(C)OC(=O)N1OCCC1c1ccc(Cl)cc1 (centres unmarked) [Compound 49] ; pIC50 = > 6.00

Data point: CC(C)(C)C(=O)N1OCC[C@H]1c1ccc(C#N)c(F)c1 [Compound 151] ; pIC50 = > 6.00

Data point: O=C(N1OCC[C@H]1c1ccc(F)cc1)C1(C(F)(F)F)CC1 [Compound 37] ; pIC50 = > 6.00

Data point: CC(C)(COC(F)(F)F)C(=O)N1OCC[C@H]1c1ccc(F)nc1 [Compound 164] ; pIC50 = > 6.00

Data point: CC(C)(C)C(=O)N1OCC[C@H]1c1ccn2nccc2c1 [Compound 132] ; pIC50 = > 6.00
